Assay: qHTS for Inhibitors of human tyrosyl-DNA phosphodiesterase 1 (TDP1): qHTS in cells in absence of CPT; further: nearly all actives have a fitted effect of over 55% in size
Conditions: DT40 Tdp1-/- hTDP1 cells, no CPT, ATP luminescence, 48 h
About 64,000 (15%) of roughly 420,000 compounds were called active. Not shown: some 27% with an inconclusive outcome. The call rests on the fitted dose curve; in most records, active means well fitted inhibition curve with a large enough effect; inconclusive means small, poorly fitted or top-dose-only effect; inactive means flat fitted curve, though single readings scatter. The list is a sample of the results.
Outcomes you can answer with include only these: active, inactive

query: // outcome(item) with item = COc1cc2c(cc1OC)C(c1ccccc1Br)NC(=O)C2 (configuration not stated)
result: inactive

Further cases:
query: // outcome(item) with item = O=c1[nH]n2c(-c3ccccc3)nc(O)c2c2ccccc12
result: inactive

query: Field entry: O=C(CN1CCN(C2CCCCC2)CC1)Nc1ccccc1N1CCCCC1
result: active

query: Field entry: CN1CCN(c2ccccc2NC(=O)COc2ccc(C3CCCCC3)cc2)CC1
result: active

query: Field entry: CCOC(=O)c1c(NC(=O)CCl)sc(C(=O)N(CC)CC)c1C
result: active

* * *

Assay: qHTS for Inhibitors of human tyrosyl-DNA phosphodiesterase 1 (TDP1): qHTS in cells in absence of CPT; further: nearly all actives have a fitted effect of over 55% in size
Details: DT40 Tdp1-/- hTDP1 cells, no CPT, ATP luminescence, 48 h
About 64,000 (15%) of roughly 420,000 compounds were called active. Inconclusive results (about 27%) are left out. Calls come from the whole dose curve; as a rule, active = well fitted inhibition curve with a large enough effect; inconclusive = small, poorly fitted or top-dose-only effect; inactive = flat fitted curve, though single readings scatter. A selection follows.
Outcomes you can answer with include only these: YES (active), NO (inactive)

query: // outcome(item) with item = NS(=O)(=O)c1ccc(NC(=O)COC(=O)c2c3c(nc4ccccc24)/C(=C\c2ccc4c(c2)OCO4)CCC3)cc1
result: YES

query: Field entry: O=C(c1ccccc1-c1ccccc1)N1CCOCC1
result: NO

query: Field entry: NC(=O)c1ccc(NC(=O)COC(=O)c2c3c(nc4ccccc24)/C(=C\c2ccc4c(c2)OCO4)CCC3)cc1
result: YES

query: Field entry: NS(=O)(=O)c1ccc(NC(=O)COC(=O)c2cc3ccccc3oc2=O)cc1
result: NO

query: Field entry: COC(=O)c1c(-c2ccc(C)cc2)csc1N
result: NO

Further cases:
query: // outcome(item) with item = CC(=O)CCC(=O)c1ccc2ccccc2c1
result: NO

query: Field entry: O=C(COC(=O)c1ccncc1)Nc1ccc2c(c1)OCO2
result: NO

query: Field entry: CC(NC(=O)c1ccc(Cl)cc1)C(=O)N1CCCCC1 (configuration not stated)
result: NO

query: Field entry: CCOC(=O)c1c(-c2ccc(C)cc2)csc1/N=C(\C)C1=C(O)c2ccccc2C1=O
result: YES

* * *

Experiment: qHTS for Inhibitors of human tyrosyl-DNA phosphodiesterase 1 (TDP1): qHTS in cells in absence of CPT; further: nearly all actives have a fitted effect of over 55% in size
Details: DT40 Tdp1-/- hTDP1 cells, no CPT, ATP luminescence, 48 h
Hit rate of the full screen: of about 420,000 compounds, about 64,000 (15%) were called active. Another 27% or so got no clear call; they are omitted. Calls come from the whole dose curve; as a rule, active = well fitted inhibition curve with a large enough effect; inconclusive = small, poorly fitted or top-dose-only effect; inactive = flat fitted curve, though single readings scatter. The list is a sample of the results.
Outcomes you can answer with include only these: active, inactive

query: // outcome(item) with item = COc1cccc(NC(=O)C2CCCN2C(=O)OCc2ccccc2)c1 (stereo unspecified)
result: inactive

query: Field entry: COc1ccc(CCN2C(=O)c3oc4cc(C)cc(C)c4c(=O)c3C2c2ccccc2F)cc1OC (stereo unspecified)
result: active

query: Field entry: COc1ccc(-c2csc(C(O)c3cccc(Cl)c3)n2)cn1 (stereo unspecified)
result: active

query: Field entry: Nc1ccc(OCC(O)C[n+]2ccc(CCS(=O)(=O)[O-])cc2)cc1 (stereo unspecified)
result: inactive
